Tested on: Aβ42
protocol_text: In vivo efficacy: Aβ42 lowering in brain after single oral dose (Table 8); further: test concentration or dose not given here
settings: mouse brain soluble fraction, ELISA, compared to untreated animals
property: Aβ42 (% Ctrl)_Mean
Give the quantity in % Ctrl, number only.

// Input: "COc1cc(Nc2cc(F)cn3cc(CC(C)C)nc23)ccc1-c1ocnc1C.Cl" . Output its Aβ42 (% Ctrl)_Mean only.
77

// Input: "COc1cc(Nc2cccc3c2nc(-c2ccc(F)cc2)n3C)ccc1-c1cnc(C)o1" . Output its Aβ42 (% Ctrl)_Mean only.
58

// Input: "Cc1ncc(-c2ccc(Nc3nccc4c3nc(-c3ccc(F)cc3)n4C)cc2F)o1" . Output its Aβ42 (% Ctrl)_Mean only.
106

// Input: "COc1cc(Nc2nc(C(F)(F)F)cn3cc(C)nc23)ccc1-c1cnc(C)o1" . Output its Aβ42 (% Ctrl)_Mean only.
99

// Input: "Cc1ncc(-c2ccc(Nc3cc(C(F)(F)F)cn4cc(C(=O)N(C)C)nc34)cc2F)o1" . Output its Aβ42 (% Ctrl)_Mean only.
104

// Input: "COc1cc(Nc2cccc3c2nc(CCC(F)(F)F)n3C)ccc1-c1ocnc1C" . Output its Aβ42 (% Ctrl)_Mean only.
91

// Input: "COc1cc(Nc2cc(C(F)(F)F)cc3c2nc(-c2ccc(F)cc2)n3C)ccc1-c1cnc(C)o1" . Output its Aβ42 (% Ctrl)_Mean only.
96

// Input: "COc1cc(Nc2cccc3c2nc(-c2ccc(F)cc2)n3C)ccc1-c1cnn(C)c1" . Output its Aβ42 (% Ctrl)_Mean only.
87
